- Tested on: MALME-3M melanoma
- METHOD SUMMARY: NCI tumour cell line growth inhibition, 48 h
OBSERVABLE: TGI (µM)
Express the result in µM but write the number alone.

// solved cases for TGI follow
N/C(=N\OC(=O)NC(Cl)=C(Cl)Cl)c1cc(C(F)(F)F)cc(C(F)(F)F)c1 | 48.6
C=C(C)CC1=C(C(=S)NCCO[Si](C)(C)C(C)(C)C)C(OCC)(OCC)C1=O | 27.1
CC(=O)Oc1ccc(OC(Oc2ccccc2)c2ccccc2)cc1 (configuration not stated) | 52.9
CC(/C=N/NC1=NCCCCN1)=N\NC1=NCCCCN1 | 84
CN(C)CCCNC(=O)c1cc(NC(=O)c2cc(NC(=O)c3cc(NC(=O)CCCn4ccc(CO)c4CO)cn3C)cn2C)cn1C | 37.4
COc1cc(C/C=C/c2ccccc2)c(OC)cc1O | 42.4

Entry `CC(C)OC(=O)c1ccc(CCC2=CC(=O)C(Br)=CC2=O)cc1` , MALME-3M melanoma data, TGI value: 29.1

Measured TGI for this entry `O=C1c2cnccc2Cc2cccc3c2N1c1ccccc1S3` on MALME-3M melanoma: 62.4

Entry `ClCc1c(-c2ccccc2)nn(-c2ccccc2)c1CCl` , tested on MALME-3M melanoma, has a reported TGI of 30.6

###

- Test system: HL-60(TB) leukemia
- METHOD SUMMARY: NCI tumour cell line growth inhibition, 48 h
OBSERVABLE: TGI (µM)
Quick note: give the figure in µM, leave out the unit.

Solved entries:
COc1ccc(N2CCN(c3ccc4c(c3)NCC(=O)N4)CC2)cc1 | 47.5
O=C1OCC2=C1C(c1cccc(F)c1)c1cc3c(cc1N2CCO)OCCO3 (stereo not given) | 0.387

Record for `Cc1ccc(NC(=O)c2cccc([N+](=O)[O-])c2O)c(C)c1` under target or system HL-60(TB) leukemia: TGI reported as 55.6

###

This section presents compounds with their documented TGI values.
- System: BT-549 breast
- METHOD SUMMARY: NCI tumour cell line growth inhibition, 48 h
Write down the numeric answer in µM and omit the unit.

Look over these answered cases.
O=C1OCC2=C1C(c1cccc(F)c1)c1cc3c(cc1N2CCO)OCCO3 (stereo not given) | 11.4
C[C@@H]1CN(Cc2ccc(/C=C/c3n[nH]c4ccc5nc(-c6cn[nH]c6C(F)(F)F)c6c(c5c34)CCCC6)cc2)C[C@H](C)O1 | 14.8
COC(=O)[C@]12CC[C@@H](C)[C@H](C)[C@@H]1C1=CC[C@@H]3[C@@]4(C)C(c5ncon5)=C[C@@](C)(CO)C4=CC[C@@]3(C)[C@]1(C)CC2 | 6.38
Cn1c2ccccc2c2cc(-c3ccccc3)c3c(c21)C(=O)C=CC3=O | 26.5
Nc1c(C(=O)Nc2cccc3ccccc23)sc2nc3c(cc12)CCCC3 | 17.2

// `CN(C)CCCNC(=O)c1cc(NC(=O)c2cc(NC(=O)c3cc(NC(=O)CCCn4ccc(CO)c4CO)cn3C)cn2C)cn1C` : TGI value = 7.51

###

- Tested on: SNB-19 CNS
- METHOD SUMMARY: NCI tumour cell line growth inhibition, 48 h
OBSERVABLE: TGI

Reference set, count: 5
O=C1Nc2ccccc2C12CC(c1ccccc1)=NN2 (stereo unspecified) | > 100 µM
COc1ccc(-c2cc(-c3ccccc3)c(C#N)c(=O)[nH]2)cc1 | > 100 µM
COC1=NN2C(OC)(c3ccccc3)c3c(-c4ccccc4)sc(-c4ccccc4)c3C2(c2ccccc2)S1 (stereo unspecified) | > 100 µM
COC(=O)Nc1nc2c(OC)c(OC)c(OC)cc2[nH]1 | > 100 µM
C/C=C/C=C/C1=NN(c2cccc(S(=O)(=O)O)c2)C2(C1)SCC(=O)N2c1nc2ccccc2s1 (stereo unspecified) | > 100 µM

Tested system SNB-19 CNS; TGI recorded for `O=C(NN=C1CCCCC1)Nc1ccccc1Cl` was > 100 µM

Log: SNB-19 CNS, molecule `COc1cc(N(C)C)ccc1/C=c1/c2ccccc2n2c1cc(-c1ccccc1)[n+]2C` , TGI = 1.58 µM

Noted TGI for `C=C1c2nc3ccccc3n2C=C(c2ccc(Cl)cc2)N1c1ccccc1` , tested on SNB-19 CNS: 19.6 µM

`COc1cc(C)c(C(=O)/C=C/c2cc(OC)c(O)c(OC)c2)cc1O` on SNB-19 CNS gives TGI = 44.5 µM

// assay SNB-19 CNS, entry `c1ccc(Cn2cc3c(c2)-c2oncc2CC3)cc1` , TGI value = > 100 µM

// returns TGI for `O=C1CCC2=C(CCC2)N1CCc1ccc2c(c1)OCO2` with SNB-19 CNS; value = > 100 µM
